Hello, the source for this data is paper PMC6268093, in case you need it.

Known melting point of a selection of compounds

- input-smiles: "CC(C)CNC(=O)/C=C/C=C/CCC/C=C/Cc1ccc(F)cc1"
  melting point: "75 to 77 °C"
- input-smiles: "CC(C)CNC(=O)/C=C/C=C/CCC/C=C/Cc1ccccc1"
  melting point: "80 to 82 °C"
- input-smiles: "COc1ccc(C/C=C/CCC/C=C/C=C/C(=O)NCC(C)C)cc1OC"
  melting point: "61 to 63 °C"
- input-smiles: "COc1cc(C/C=C/CCC/C=C/C=C/C(=O)NCC(C)C)cc(OC)c1OC"
  melting point: "72 to 73 °C"
- input-smiles: "CC(C)CNC(=O)/C=C/C=C/CCC/C=C/Cc1ccc2c(c1)OCCO2"
  melting point: "69 to 72 °C"

* * *

Known inhibition at 1 µM of a selection of compounds
Biological target: hERG potassium channel (Homo sapiens)
Assay: in vitro
measurement-kind: inhibition at 1 µM (%)

- input-smiles: "CC(C)CNC(=O)/C=C/C=C/CCC/C=C/Cc1ccc(Cl)cc1"
  observed-result: 8
- input-smiles: "CC(C)CNC(=O)/C=C/C=C/CCC/C=C/Cc1ccc(F)cc1"
  observed-result: 7.1

* * *

Target: hERG potassium channel (Homo sapiens)
Test: hERG inhibition, automated QPatch patch clamp in CHO cells stably expressing hERG
pIC50: −log10 of the molar value.

- input-smiles: "CC(C)CNC(=O)/C=C/C=C/CCC/C=C/Cc1ccc(Cl)cc1"
  pIC50: "< 4.00"
- input-smiles: "CC(C)CNC(=O)/C=C/C=C/CCC/C=C/Cc1ccc(F)cc1"
  pIC50: "< 4.00"

* * *

Molecular target: hERG potassium channel (Homo sapiens, UniProt Q12809)
Sequence (Q12809 whole entry): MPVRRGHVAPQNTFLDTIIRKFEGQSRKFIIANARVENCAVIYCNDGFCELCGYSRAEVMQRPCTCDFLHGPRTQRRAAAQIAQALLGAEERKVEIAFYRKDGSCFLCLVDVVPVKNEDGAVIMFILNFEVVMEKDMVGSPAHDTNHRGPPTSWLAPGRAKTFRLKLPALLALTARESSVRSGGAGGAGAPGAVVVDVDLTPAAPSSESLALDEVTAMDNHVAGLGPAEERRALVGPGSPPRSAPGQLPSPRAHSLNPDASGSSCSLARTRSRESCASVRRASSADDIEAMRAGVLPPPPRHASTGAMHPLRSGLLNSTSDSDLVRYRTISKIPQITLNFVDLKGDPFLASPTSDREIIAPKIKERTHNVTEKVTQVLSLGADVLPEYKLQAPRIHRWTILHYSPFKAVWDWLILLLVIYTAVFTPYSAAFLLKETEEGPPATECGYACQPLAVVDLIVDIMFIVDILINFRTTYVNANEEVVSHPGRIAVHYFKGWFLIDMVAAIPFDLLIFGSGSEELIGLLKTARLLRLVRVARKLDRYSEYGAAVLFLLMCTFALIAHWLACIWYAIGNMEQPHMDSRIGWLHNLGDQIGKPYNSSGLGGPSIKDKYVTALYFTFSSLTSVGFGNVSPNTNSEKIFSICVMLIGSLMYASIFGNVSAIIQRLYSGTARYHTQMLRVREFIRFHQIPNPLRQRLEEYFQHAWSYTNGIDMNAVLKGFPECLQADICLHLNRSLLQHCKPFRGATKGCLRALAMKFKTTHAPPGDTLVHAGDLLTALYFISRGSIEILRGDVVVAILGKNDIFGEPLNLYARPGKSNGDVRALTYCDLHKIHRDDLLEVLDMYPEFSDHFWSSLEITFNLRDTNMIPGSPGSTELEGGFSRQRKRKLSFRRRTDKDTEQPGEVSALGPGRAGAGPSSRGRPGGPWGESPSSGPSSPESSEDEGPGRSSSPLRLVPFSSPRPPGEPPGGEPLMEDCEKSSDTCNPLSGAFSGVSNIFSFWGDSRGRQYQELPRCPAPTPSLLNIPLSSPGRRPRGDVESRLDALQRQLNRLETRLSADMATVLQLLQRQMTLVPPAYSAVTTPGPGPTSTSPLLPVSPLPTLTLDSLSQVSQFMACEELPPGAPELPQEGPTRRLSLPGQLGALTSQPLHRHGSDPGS
Experiment: in vitro
measurement-kind: inhibition at 10 µM

- compound: "CC(C)CNC(=O)/C=C/C=C/CCC/C=C/Cc1ccc(Cl)cc1 [Compound 1h]"
  measurement-kind: "inhibition at 10 µM"
  observed-result: "13.9%"
- compound: "CC(C)CNC(=O)/C=C/C=C/CCC/C=C/Cc1ccc(F)cc1 [Compound 1i]"
  measurement-kind: "inhibition at 10 µM"
  observed-result: "10.7%"

* * *

Molecular target: hERG potassium channel (Homo sapiens)
Assay: hERG inhibition, automated QPatch patch clamp in CHO cells stably expressing hERG
Conditions: human, CHO cells stably expressing hERG

- compound: "COc1cc(N)c(Cl)cc1C(=O)NC1CCN(CCCOc2ccc(F)cc2)CC1OC (stereo not shown) [Cisapride, reference compound]"
  inhibition at 1 µM, %: 97.9
